Taken from PubChem BioAssay AID1159580.

normalized growth by entry:
- Method summary: chemical genetic growth profiling, strain panel (AID 1159580);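 further: tested at 20 µM; growth read once vehicle control cultures reached saturation at 30 °C; 1 = growth at the plate median or of vehicle wells; lower values mean less growth of the strain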
- Condition notes: S. cerevisiae deletion strains, growth OD, locus YCL029C, strain bik1, hits give low values
The campaign covered roughly 5,500 compounds. About 2,000 (36%) were called active. Not shown: some 18% with an inconclusive outcome. Some of the results follow.
Give the figure by itself; no unit, no explanation.

# Compound, Reported value
records = [
    ("COc1cc(OC)c2c3c1C(=O)c1c(OC)cc(C)c4c(OC)cc(c-3c14)C(C)(C)C2=O", 0.993),
    ("CCCCSP(=O)(SCCCC)SCCCC", 1.01),
]

Return value of normalized growth for input `COc1cc([C@H]2Oc3cc([C@H]4Oc5cc(O)cc(O)c5C(=O)[C@@H]4O)ccc3O[C@@H]2CO)ccc1O` , no commentary.
0.97

Name the recorded normalized growth of the item CC(CCC(=O)O)[C@H]1CCC2C3CC[C@@H]4C[C@H](O)CC[C@]4(C)C3C[C@H](O)[C@@]21C (stereo partly drawn) in your answer.
0.977

Specify normalized growth for CC(C)CCCC(C)C1CCC2C3CC[C@H]4CCCC[C@]4(C)C3CC[C@]12C (stereo partly drawn) and stop.
0.985

Answer with the recorded normalized growth for the compound listed here: `CC(=O)Nc1nnc(S(N)(=O)=O)s1`
0.987

Using the record for `NC(N)=O` , state its measured normalized growth.
0.991

Tell me normalized growth reported for `CCCCC[C@H](CC(=O)NO)C(=O)N[C@H](C(=O)N1CCC[C@H]1CO)C(C)C`
1.02

Give the reported value of normalized growth for this record: CCCCCC1C(=O)CCC1CC(=O)OC (stereo not drawn)
0.958

Query normalized growth for `O=c1cc(-c2ccccc2)oc2cc(O)c(O)c(O)c12`
0.174

For the compound `O=c1cc(-c2ccccc2)oc2c(O)c(O)ccc12` , give its reported normalized growth.
0.956

Name the recorded normalized growth of the compound listed here: `Cc1cc(O)c(C=O)c2c1C(=O)Oc1c(COC(=O)/C=C/C(=O)O)c(O)c(C(=O)O)c(C)c1O2`
0.98

Determine from records and report normalized growth for CC(=O)O[C@H]1CC[C@]2(C)C3=CC(=O)[C@@]4(C)C(C[C@@H]5OC6(OCC(C)CC6Br)[C@@H](C)[C@@H]54)C3CC[C@H]2C1 (stereo partly drawn)
0.994
